biological target: Coronary A2-Adenosine Receptor (Canis lupus familiaris); construct: The assay of coronary vasoactivity in the anesthetized, open-chest dog; from tissue; host or cells: coronary vessels in situ, anesthetized open-chest dog; experiment: Coronary vasoactivity in the anesthetized, open-chest dog (intracoronary infusion; MPR from EC50); assay type: in vivo; conditions: ratio of MPR (MeAdo) at dog coronary A2 receptor to MPR at rat brain A1 receptor
Sequence (P11617 whole entry, the tested form may be a part): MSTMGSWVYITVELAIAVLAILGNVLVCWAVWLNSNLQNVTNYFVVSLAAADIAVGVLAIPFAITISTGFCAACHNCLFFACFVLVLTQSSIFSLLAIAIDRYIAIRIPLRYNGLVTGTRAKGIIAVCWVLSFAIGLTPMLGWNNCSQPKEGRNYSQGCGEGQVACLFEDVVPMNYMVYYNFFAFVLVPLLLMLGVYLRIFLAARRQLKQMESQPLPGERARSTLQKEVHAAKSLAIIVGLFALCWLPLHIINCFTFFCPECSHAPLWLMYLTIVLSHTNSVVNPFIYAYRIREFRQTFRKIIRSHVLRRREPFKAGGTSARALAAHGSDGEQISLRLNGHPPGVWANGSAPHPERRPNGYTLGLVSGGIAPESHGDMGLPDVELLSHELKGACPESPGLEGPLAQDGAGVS
endpoint: A2/A1 potency ratio (MPR(A2)/MPR(A1))

COC(=O)Cc1ccc(NC(=O)Cc2ccc(Nc3ncnc4c3ncn4[C@@H]3O[C@H](CO)[C@@H](O)[C@H]3O)cc2)cc1 [Compound 13]
2.7
Cc1ccc(NC(=O)Cc2ccc(Nc3ncnc4c3ncn4[C@@H]3O[C@H](CO)[C@@H](O)[C@H]3O)cc2)cc1 [Compound 10]
1.2
Nc1nc(Cl)nc2c1ncn2[C@@H]1O[C@H](CO)[C@@H](O)[C@H]1O [Compound 2, 2-Chloroadenosine, reference compound]
54

[a] CNc1ncnc2c1ncn2[C@@H]1O[C@H](CO)[C@@H](O)[C@H]1O [Compound 3, N^6 -methyladenosine, reference compound]
[b] NNC(=O)Cc1ccc(NC(=O)Cc2ccc(Nc3ncnc4c3ncn4[C@@H]3O[C@H](CO)[C@@H](O)[C@H]3O)cc2)cc1 [Compound 15]
Look at a and b . Which one has the lower recorded A2/A1 potency ratio (MPR(A2)/MPR(A1)) number? Label of pick, please.
a
(a: 1.0, b: 5.3)

Every entry's value here was drawn from patent US5284834A.
